Data origin: patent US20250144077A1

- Test details: Single-dose, open-label pharmacokinetics of herombopag in subjects with normal liver function, mild and moderate hepatic impairments
- Type: in vivo, human
- Condition summary: human, plasma, po, 7.5 mg, single 7.5 mg oral dose, fasted; mild hepatic impairment (n = 8); Median (Min-Max); read-out: Tmax
Measurement type: Tmax (h)
Give your result in h as a bare value.

The compound CC1=NN(c2ccc3c(c2)CCCC3)C(=O)/C1=N\Nc1cccc(-c2ccc(C(=O)O)o2)c1O [herombopag] showed Tmax equal to 2

---

- Test details: Single-dose, open-label pharmacokinetics of herombopag in subjects with normal liver function, mild and moderate hepatic impairments
- Assay type: in vivo, human
- Condition summary: human, plasma, po, 7.5 mg, single 7.5 mg oral dose, fasted; moderate hepatic impairment (n = 8); GeoMean (% CVb); read-out: AUC0-∞
Measurement type: AUC(0-inf) (ng·h/mL)
Entry rule: numbers only, all in ng·h/mL.

For this compound ( CC1=NN(c2ccc3c(c2)CCCC3)C(=O)/C1=N\Nc1cccc(-c2ccc(C(=O)O)o2)c1O [herombopag] ), measured AUC(0-inf) is 1660
